tested.system: ^MtbLcp1 (Mycobacterium tuberculosis, UniProt P96872)
Sequence (P96872 entry or part of it): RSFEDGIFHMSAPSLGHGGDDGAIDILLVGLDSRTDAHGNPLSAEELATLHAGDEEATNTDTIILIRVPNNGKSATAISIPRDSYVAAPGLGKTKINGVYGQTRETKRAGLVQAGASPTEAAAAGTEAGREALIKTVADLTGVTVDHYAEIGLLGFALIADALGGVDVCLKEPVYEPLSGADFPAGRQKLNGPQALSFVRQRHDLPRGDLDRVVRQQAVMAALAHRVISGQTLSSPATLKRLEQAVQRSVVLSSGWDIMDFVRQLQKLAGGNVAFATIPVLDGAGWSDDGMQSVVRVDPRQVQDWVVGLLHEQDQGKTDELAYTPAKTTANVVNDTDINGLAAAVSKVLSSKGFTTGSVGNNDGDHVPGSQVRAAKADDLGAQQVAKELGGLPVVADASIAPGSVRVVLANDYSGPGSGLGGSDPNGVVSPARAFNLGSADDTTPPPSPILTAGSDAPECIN
test: Intrinsic tryptophan fluorescence (ITF) ligand binding of linker unit analogues to recombinant ^MtbLcp1
condition.set: ITF, single-site saturation model, 25°C, 0.026 µM ^MtbLcp1, λ = 341 nm; read-out: equilibrium dissociation constant, KD
Listed next: entries and their corresponding Kd.
Respond numerically; units are µM and should not be typed.

CCCCCCCCO[C@H]1O[C@H](CO)[C@@H](O)[C@H](O[C@@H]2O[C@@H](C)[C@H](O)[C@@H](O)[C@H]2O)[C@H]1NC(C)=O [compound 1]; 57.7

Measured on ^MtbLcp1 (Mycobacterium tuberculosis, UniProt P96872), CCCCCCCCOC1OC(CO)C(O)C(OC2OC(C)C(OC3OC(C(CO)OC4OC(C(O)CO)C(O)C4O)C(O)C3O)C(O)C2O)C1NC(C)=O (stereo not drawn) [compound 2] has a documented Kd of 5.13

Measured on ^MtbLcp1 (Mycobacterium tuberculosis, UniProt P96872), CCCCCCCCOC1OC(CO)C(O)C(OC2OC(C)C(OC3OC(C(CO)OC4OC(C(O)COC5OC(C(O)CO)C(O)C5O)C(O)C4O)C(O)C3O)C(O)C2O)C1NC(C)=O (stereo not drawn) [compound 3] has a documented Kd of 20.4
